Source: patent US12673946B2

- tgt: human TRPV4 (Homo sapiens)
- Construct: host or cells: tetracycline-inducible Flp-In T-REx 293 cells
- procedureSummary: Hypotonicity-induced Ca2+ influx (Fluo-4, FDSS)
- Assay type: cell-based
- conditionDetails: Flp-In T-REx 293 cells expressing human TRPV4, examples listed under heading 'Human IC50<50 nM'
Listed next: entries and their corresponding IC50.

Problem: Item under review: O=C(C(O)c1cccc(SC(F)(F)F)c1)N1CCc2nc(C3(c4cccc(Cl)c4)CC3)[nH]c(=O)c2C1 (stereo not shown) [14-18] . Reported IC50?
Result: < 50 nM

----------
- tgt: human TRPV4 (Homo sapiens)
- Construct: host or cells: tetracycline-inducible Flp-In T-REx 293 cells
- procedureSummary: Hypotonicity-induced Ca2+ influx (Fluo-4, FDSS)
- Type: cell-based
- conditionDetails: Flp-In T-REx 293 cells expressing human TRPV4, examples listed under heading 'Human IC50<50 nM'
pIC50: −log10 of the molar value.
readoutName: pIC50

Recorded pIC50, per entry:
O=C(C(O)c1cccc(S(F)(F)(F)(F)F)c1)N1CCc2nc(C3(c4cccc(F)c4)CC3)[nH]c(=O)c2C1 (stereo not shown)	> 7.30
O=C(C(O)c1cccc(Cl)c1F)N1CCCc2nc(C3(c4ccccc4)CC3)[nH]c(=O)c2C1 (stereo not shown)	> 7.30
O=C(C(O)c1cncc(-c2cccc(F)c2)c1)N1CCc2nc(C3(c4ccccc4)CC3)[nH]c(=O)c2C1 (stereo not shown)	> 7.30
O=C(C(O)c1cccc(-c2cccc(F)c2)c1)N1CCCc2nc(C3(c4cccc(F)c4)CC3)[nH]c(=O)c2C1 (stereo not shown)	> 7.30
O=C([C@H](O)c1cccc(-c2ccc(Cl)cc2)c1)N1CCCc2nc(C3(c4cccc(Cl)c4)CC3)[nH]c(=O)c2C1	> 7.30
O=C([C@H](O)c1cccc(-c2cccc(OC(F)(F)F)c2)c1)N1CCCc2nc(C3(c4cncc(-c5ccccc5)c4)CC3)[nH]c(=O)c2C1	> 7.30
O=C(Cc1ccccc1)N1CCN(c2ccc(-c3cccc(C4(c5nc6c(c(=O)[nH]5)CN(C(=O)[C@H](O)c5cccc(C(F)(F)F)c5)CCC6)CC4)c3)cn2)CC1	> 7.30
O=C(NC1CCCCC1)N1CC=C(c2cccc(C3(c4nc5c(c(=O)[nH]4)CN(C(=O)[C@H](O)c4cccc(C(F)(F)F)c4)CCC5)CC3)c2)CC1	> 7.30

Problem: Form field: pIC50 recorded for O=C(C(O)c1ccccc1Oc1ccccc1)N1CCCc2nc(C3(c4cccc(Cl)c4)CC3)[nH]c(=O)c2C1 (stereo not shown) with human TRPV4 (Homo sapiens) (enter value)
Result: > 7.30

Problem: Form field: pIC50 recorded for `O=C(Cc1ccccc1-c1ccccc1)N1CCCc2nc(C3(c4cccc(Cl)c4)CC3)[nH]c(=O)c2C1` with human TRPV4 (Homo sapiens) (enter value)
Result: > 7.30

Problem: Form field: pIC50 recorded for `O=C([C@H](O)c1cccc(C(F)(F)F)c1)N1CCCc2nc(C3(c4cccc(C5CCC(F)(F)CC5)c4)CC3)[nH]c(=O)c2C1` with human TRPV4 (Homo sapiens) (enter value)
Result: > 7.30

Problem: Form field: pIC50 recorded for `O=C(Cc1cccc(-c2cccc(OC(F)(F)F)c2)c1)N1CCCc2nc(C3(c4cccc(Cl)c4)CC3)[nH]c(=O)c2C1` with human TRPV4 (Homo sapiens) (enter value)
Result: > 7.30

Problem: Form field: pIC50 recorded for `O=C([C@H](O)c1cccc(C(F)(F)F)c1)N1CCCc2nc(C3(c4ccnc(Oc5ccccc5)c4)CC3)[nH]c(=O)c2C1` with human TRPV4 (Homo sapiens) (enter value)
Result: > 7.30

Problem: Form field: pIC50 recorded for `O=C(Cc1cccc(-c2cccc(F)c2)c1)N1CCCc2nc(C3(c4ccccc4)CC3)[nH]c(=O)c2C1` with human TRPV4 (Homo sapiens) (enter value)
Result: > 7.30

Problem: Form field: pIC50 recorded for `O=C([C@H](O)c1cccc(Cl)c1)N1CCc2nc(C3(c4ccccc4)CC3)[nH]c(=O)c2C1` with human TRPV4 (Homo sapiens) (enter value)
Result: > 7.30

Problem: Form field: pIC50 recorded for `O=C([C@H](O)c1cccc(Cl)c1)N1CCCc2nc(C3(c4cccc(-c5cc6ccccc6s5)c4)CC3)[nH]c(=O)c2C1` with human TRPV4 (Homo sapiens) (enter value)
Result: > 7.30

Problem: Form field: pIC50 recorded for `O=C([C@H](O)c1cccc(-c2cncc(C(F)(F)F)c2)c1)N1CCc2nc(C3(c4ccccc4)CC3)[nH]c(=O)c2C1` with human TRPV4 (Homo sapiens) (enter value)
Result: > 7.30

----------
- tgt: human TRPV4 (Homo sapiens)
- Construct: host or cells: tetracycline-inducible Flp-In T-REx 293 cells
- procedureSummary: Hypotonicity-induced Ca2+ influx (Fluo-4, FDSS)
- Type: cell-based
- conditionDetails: Flp-In T-REx 293 cells stably expressing human TRPV4, compounds listed by potency bin (<10 nM Tables 96-1/96-2, <3 nM Table 97)
pIC50: −log10 of the molar value.
Listed next: entries and their corresponding pIC50.

O=C(Cc1cccc(-c2cccc(C(F)(F)F)c2)c1)N1CCCc2nc(C3(c4cncc(-c5ccccc5)c4)CC3)[nH]c(=O)c2C1	> 8.00
O=C([C@H](O)c1cccc(C(F)(F)F)c1)N1CCCc2nc(C3(c4cccc(-c5ccc6ccccc6c5)c4)CC3)[nH]c(=O)c2C1	> 8.00
O=C(C(O)c1cccc(-c2cccc(SC(F)(F)F)c2)c1)N1CCc2nc(C3(c4ccccc4)CC3)[nH]c(=O)c2C1 (stereo not shown)	> 8.00
CC(C)c1cncc(C2(c3nc4c(c(=O)[nH]3)CN(C(=O)[C@H](O)c3cccc(C(F)(F)F)c3)CCC4)CC2)c1	> 8.00
CC(C)c1cccc(-c2cccc([C@@H](O)C(=O)N3CCCc4nc(C5(c6cccc(Cl)c6)CC5)[nH]c(=O)c4C3)c2)c1	> 8.52

Problem: Form field: pIC50 recorded for `N#CC1(c2ccc(-c3cccc(C4(c5nc6c(c(=O)[nH]5)CN(C(=O)[C@H](O)c5cccc(Cl)c5)CCC6)CC4)c3)cc2)CC1` with human TRPV4 (Homo sapiens) (enter value)
Result: > 8.52

Problem: Form field: pIC50 recorded for `O=C(N1CCCc2nc(C3(c4ccccc4)CC3)[nH]c(=O)c2C1)C(F)(F)c1cccc(Cl)c1` with human TRPV4 (Homo sapiens) (enter value)
Result: > 8.00

Problem: Form field: pIC50 recorded for `O=C([C@H](O)c1cccc(C(F)(F)F)c1)N1CCCc2nc(C3(c4cccc(-c5cnn(C(F)F)c5)c4)CC3)[nH]c(=O)c2C1` with human TRPV4 (Homo sapiens) (enter value)
Result: > 8.00

Problem: Form field: pIC50 recorded for `CC(C)N(C(=O)c1csc(C2(c3nc4c(c(=O)[nH]3)CN(C(=O)[C@H](O)c3cccc(C(F)(F)F)c3)CCC4)CC2)c1)C1CCCCC1` with human TRPV4 (Homo sapiens) (enter value)
Result: > 8.00

Problem: Form field: pIC50 recorded for `CN(Cc1ccc2ccccc2c1)C(=O)c1csc(C2(c3nc4c(c(=O)[nH]3)CN(C(=O)[C@H](O)c3cccc(C(F)(F)F)c3)CCC4)CC2)c1` with human TRPV4 (Homo sapiens) (enter value)
Result: > 8.00

Problem: Form field: pIC50 recorded for `O=C([C@H](O)c1cccc(-c2cccc(C(F)(F)F)c2)c1)N1CCCc2nc(C3(c4cccc(Cl)c4)CC3)[nH]c(=O)c2C1` with human TRPV4 (Homo sapiens) (enter value)
Result: > 8.52

Problem: Form field: pIC50 recorded for O=C(C(O)c1cccc(-c2cccc(OC(F)(F)F)c2)c1)N1CCCc2nc(C3(c4cccc(F)c4)CC3)[nH]c(=O)c2C1 (stereo not shown) with human TRPV4 (Homo sapiens) (enter value)
Result: > 8.00

Problem: Form field: pIC50 recorded for `CC(C)(C)c1cccc(-c2cccc([C@@H](O)C(=O)N3CCc4nc(C5(c6cccc(Cl)c6)CC5)[nH]c(=O)c4C3)c2)c1` with human TRPV4 (Homo sapiens) (enter value)
Result: > 8.00

----------
Listed next: entries and their corresponding pIC50.
- tgt: human TRPV4 (Homo sapiens, UniProt Q9HBA0)
- Construct: host or cells: tetracycline-inducible Flp-In T-REx 293 cells
- Sequence (Q9HBA0 whole entry): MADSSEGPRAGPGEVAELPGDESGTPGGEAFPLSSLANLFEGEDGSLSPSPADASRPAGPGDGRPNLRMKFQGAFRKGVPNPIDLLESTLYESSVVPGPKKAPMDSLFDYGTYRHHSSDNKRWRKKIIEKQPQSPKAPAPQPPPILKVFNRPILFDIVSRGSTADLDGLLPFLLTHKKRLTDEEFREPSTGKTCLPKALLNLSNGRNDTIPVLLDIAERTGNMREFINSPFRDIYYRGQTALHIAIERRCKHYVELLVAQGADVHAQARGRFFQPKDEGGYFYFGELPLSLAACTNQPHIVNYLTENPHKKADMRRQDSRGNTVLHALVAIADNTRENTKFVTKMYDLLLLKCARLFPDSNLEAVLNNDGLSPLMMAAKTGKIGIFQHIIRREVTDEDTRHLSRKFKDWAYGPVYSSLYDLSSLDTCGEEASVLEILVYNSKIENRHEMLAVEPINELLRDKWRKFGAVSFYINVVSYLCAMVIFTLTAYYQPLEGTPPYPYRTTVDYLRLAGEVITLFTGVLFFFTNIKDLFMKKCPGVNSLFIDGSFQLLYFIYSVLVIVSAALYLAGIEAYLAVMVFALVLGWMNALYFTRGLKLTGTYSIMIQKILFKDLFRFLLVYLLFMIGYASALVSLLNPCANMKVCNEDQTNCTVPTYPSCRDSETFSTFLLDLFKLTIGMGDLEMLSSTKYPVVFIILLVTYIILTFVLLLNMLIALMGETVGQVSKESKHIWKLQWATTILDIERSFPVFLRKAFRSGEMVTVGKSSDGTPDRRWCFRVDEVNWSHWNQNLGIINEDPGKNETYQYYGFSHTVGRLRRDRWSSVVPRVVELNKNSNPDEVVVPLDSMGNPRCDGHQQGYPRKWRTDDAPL
- procedureSummary: Hypotonicity-induced Ca2+ influx (Fluo-4, FDSS)
- Format: cell-based
- conditionDetails: Flp-In T-REx 293 cells expressing human TRPV4, examples listed under heading 'Human IC50<50 nM'
- Description: Hypotonicity-Induced Ca^2+ Influx TRPV4 channel activation/opening results in an influx of Ca^2+ (Liedtke, W. et al., 2000 (NPL 1)). The resulting changes in intracellular calcium are monitored using a Ca^2+ sensitive fluorescent dye Fluo-4 (Invitrogen). Dye loaded cells are treated with the test compounds for 5 minutes prior to the addition of a hypotonic solution and the inhibition of the hypotonicity-induced activation is recorded. […]
pIC50: −log10 of the molar value.

Recorded pIC50, per entry:
CN(Cc1cccc2ccccc12)C(=O)c1csc(C2(c3nc4c(c(=O)[nH]3)CN(C(=O)[C@H](O)c3cccc(C(F)(F)F)c3)CCC4)CC2)c1	> 7.30
O=C(c1cccc(-c2cccc(C3(c4nc5c(c(=O)[nH]4)CN(C(=O)[C@H](O)c4cccc(C(F)(F)F)c4)CCC5)CC3)c2)c1)N1CCCCC1	> 7.30

# context switch: different compound, same pIC50
Problem: Item under review: `O=C(N1CCCc2nc(C3(c4ccccc4)CC3)[nH]c(=O)c2C1)C(F)(F)c1cccc(-c2cccc(OC(F)(F)F)c2)c1` . Reported pIC50?
Result: > 7.30
